- Test system: phospho(Ser63)-c-jun in HK-2 cells
- Procedure Text: Cell-based assay for JNK inhibitors: in-cell ELISA of TNFα-stimulated phospho(Ser63)-c-jun in HK-2 cells
- Condition Summary: Homo sapiens, 10 ng/mL TNFα, 60 min preincubation with compound
- Excerpt: Cell-Based Assay for JNK Inhibitors The cell-based assay employed the in-cell ELISA method to determine the ability of compounds to prevent the generation of phospho(Ser63)-c-jun in HK-2 cells (human proximal tubule cells) in response to stimulation with tumor necrosis factor α (TNFα). […]
Measurement Label: EC50 (µM)

> print(dat)
                              record.smiles                                 tgt  unit.abbreviation  measurement
1  COC(=O)c1c(Cc2ccc(C(=O)N[C@@H]3[C@@H]4C[C@@H]5C[C@H]3C[C@@](NCC(C)(C)O)(C5)C4)cc2)c(=O)c2ccc(Cl)cc2n1-c1ccccc1  phospho(Ser63)-c-jun in HK-2 cells                 µM          1.9
2  COC(=O)c1c(Cn2ccc(C(=O)N[C@@H]3[C@@H]4C[C@@H]5C[C@H]3C[C@@](O)(C5)C4)cc2=O)c(=O)c2ccc(Cl)cc2n1-c1ccccc1  phospho(Ser63)-c-jun in HK-2 cells                 µM          3.9

[P] COC(=O)c1c(Cc2ccc(C(=O)N[C@@H]3[C@@H]4C[C@@H]5C[C@H]3C[C@@](NC(C)=O)(C5)C4)cc2)c(=O)c2cccnc2n1-c1ccccc1
[Q] COC(=O)c1c(Cc2ccc(C(=O)N[C@@H]3[C@@H]4C[C@@H]5C[C@H]3C[C@@](NS(C)(=O)=O)(C5)C4)cc2)c(=O)c2cccnc2n1-c1ccccc1
[R] COC(=O)c1c(Cc2ccc(C(=O)N[C@@H]3[C@@H]4C[C@@H]5C[C@H]3C[C@@](NC(=O)C(C)(C)C)(C5)C4)cc2)c(=O)c2ccc(Cl)cc2n1-c1ccccc1
Query block: List by increasing EC50. // respond by listing labels in the order requested
Result block: Q, P, R
(Q: 2.1 µM, P: 3.1 µM, R: 6.9 µM)
